system: Ishikawa cells; assay: Ishikawa Cell Alkaline Phosphatase Assay; format: cell-based, human; details: Homo sapiens, Ishikawa, read-out: ED50 values (95% C.I.), estrogenic activity by the alkaline phosphatase method; reference standards; cells treated for 48 h
outcome measure: EC50 (nM)
A number alone suffices; assume nM.

Form field EC50, entry C[C@]12CC[C@@H]3c4ccc(O)cc4CC[C@H]3[C@@H]1C[C@@H](O)[C@@H]2O [estriol] : 0.13
